Hey, just so you know, these numbers are from PubChem BioAssay (NCI).

Tested on: MALME-3M melanoma
test: NCI tumour cell line growth inhibition, 48 h
Entries and their measured TGI follow.

molecule: CC(=O)OC1C(O[C@H]2CC[C@]34O[C@]35CC[C@]3(C)C(C6(C)CC[C@@H](C(C)(C)O)O6)[C@@H](O)CC3(C)[C@@H]5CC(OC3OC(CO)C(O)C(O)C3O)C4C2(C)C)OCC(O)C1O (stereo partly drawn)
TGI: > 100 µM
//
molecule: C[C@H]1O[C@@H](C(C)(C)C)OC(=O)[C@@H]1C(OC(=O)c1ccccc1)c1cccc2ccccc12 (stereo partly drawn)
TGI: > 100 µM

// moving on: another record for TGI
## Input What value of TGI has been reported for the following molecule? CC(=O)O[C@H](C[C@H](C(C)C)N(C)C(=O)[C@@H](NC(=O)[C@H]1CCCCN1C)C(C)C)c1cccc(C(=O)N[C@@H](Cc2ccccc2)C[C@H](C)C(=O)O)n1
## Output > 25 µM

* * *

Test system: SW-620 colon
test: NCI tumour cell line growth inhibition, 48 h
Where a SMILES comes first, the peptide text is derived from it. The star is where a group is joined. OSu = O=C1CCC(=O)N1O*
measure: TGI

Observe how each entry below is paired with its result.
compound: O=C(Oc1ccccc1)C(Br)C(Br)c1ccccc1 (stereo unspecified)
measure: TGI
result: 3.29 µM

compound: CC(=O)n1nc(-c2ccc3ccccc3c2)nc1C
measure: TGI
result: > 100 µM

compound: CCC[CH2][Sn]([CH2]CCC)([CH2]CCC)[O]C(=O)C(OC)c1ccccc1 (stereo unspecified)
measure: TGI
result: 0.236 µM

compound: O=c1c2cccnc2ncn1CCCN1CCCC1
measure: TGI
result: > 100 µM

compound: COC(=O)[C@H](Cc1c[nH]c2ccccc12)NC(=O)c1ccccc1I
measure: TGI
result: > 100 µM

compound: Cc1cc(C)nc(NS(=O)(=O)c2ccc(NC(=O)c3cc([N+](=O)[O-])cc([N+](=O)[O-])c3)cc2)n1
measure: TGI
result: > 100 µM

## Input What value of TGI has been reported for the following compound? O=C(NC(=O)c1cn(CCN2CCN(C(=O)NCCCCCCNC(=O)N3CCN(CCn4cc(C(=O)NC(=O)OCc5ccccc5)c(=O)[nH]c4=O)CC3)CC2)c(=O)[nH]c1=O)OCc1ccccc1
## Output > 100 µM

## Input What value of TGI has been reported for the following compound? Cc1ccc(C2C(Cl)C(=O)N2NC(=O)c2ccc(N)cc2)cc1 (stereo unspecified)
## Output 41.3 µM

## Input What value of TGI has been reported for the following compound? NCCCCC(NC(=O)C(N)Cc1ccc(O)cc1)C(=O)NC(Cc1ccc(O)cc1)C(=O)NC(CCCCN)C(=O)ON1C(=O)CCC1=O (stereo unspecified) (H-YKYK-OSu; configuration not given here)
## Output > 100 µM

* * *

Entries and their measured TGI follow.
Tested on: LOX IMVI melanoma
test: NCI tumour cell line growth inhibition, 48 h
I only need the number, in µM, no unit after it.

Observe how each entry below is paired with its result.
smilesString: Cn1cncc1-c1c(F)cncc1NC(=O)c1c(N)nn2cc(F)cnc12
systemUnderTest: LOX IMVI melanoma
measure: TGI
quantitativeResult: 10.4
--
smilesString: COc1ccc(-c2n[nH]nc2-c2cc(OC)c3c(c2)OCO3)cc1
systemUnderTest: LOX IMVI melanoma
measure: TGI
quantitativeResult: 16
--
smilesString: C/C(O)=C(\N=O)C(=O)NCc1ccccc1
systemUnderTest: LOX IMVI melanoma
measure: TGI
quantitativeResult: 36.6

// moving on: another record for TGI
## Input What value of TGI has been reported for the following compound? CN1CCN(CCCOc2cccc3nc(Nc4ccc(F)c(F)c4)ccc23)CC1
## Output 3.36
